Values from PubChem BioAssay

Field: z-score. Provide a value for each of the molecules that follow.
- test method notes: yeast growth modulation, basal conditions, primary screen, YJM789 clinical isolate, OD600, 24 h (AID 1089);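 note: growth of clinical yeast isolate S. cerevisiae YJM 789 seeded 1000 cells per well; test concentration not given here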
- test parameters: S. cerevisiae YJM789 growth, higher = more signal, called active from +8 up or from −8 down
Please give the numeric answer without any surrounding text.

Problem: Fill in: z-score of `CCCCC(=C=CC[C@@H](O)c1ccccc1OCCO)C[C@@H](O)COCc1ccccc1` is ___
Result: -1.69

Problem: Please look up its z-score: `COCCOC(=O)N1C(=O)[C@@]2(c3cc(C#CC4=CCCCC4)ccc31)[C@H](c1ccccc1OCCO)N1[C@H](c3ccccc3)[C@H](c3ccccc3)OC(=O)[C@H]1[C@@H]2C(=O)Nc1nc2ccccc2s1`
Result: 0.478

Problem: # input molecule: `CC(=O)NCCCC[C@@H]1NC(=O)[C@@H]2C[C@H](C(=O)NCCCC[N+](C)(C)C)[C@H](c3ccc(O)cc3)N2C1=O` ; wanted: its z-score
Result: 0.305

Problem: // z-score lookup, key: `COCC1=C2[C@@H](CCc3ccccc3)OB(O)C[C@@H]2[C@@H]2C(=O)C=CC(=O)[C@@H]2C1`
Result: 0.506

Problem: What z-score value was documented for this molecule, `COCCOC(=O)N1C(=O)[C@@]2(c3cc(C#CC4=CCCCC4)ccc31)[C@H](c1ccc(OCCO)cc1)N1[C@H](c3ccccc3)[C@H](c3ccccc3)OC(=O)[C@H]1[C@@H]2C(=O)NC[C@H](O)c1ccccc1` ?
Result: 2.04

Problem: I'd like to know its z-score. The molecule in question is `O=C1O[C@@H](c2ccccc2)[C@@H](c2ccccc2)N2[C@@H](c3ccc(OCCO)cc3)[C@]3(C(=O)Nc4ccccc43)[C@@H](C(=O)O)[C@H]12`
Result: 0.264
